Overview of reported 3F8 Ortho Proliferation Signal 1:2 across a group of binders:
# Target Or System: T1, orthogonal hCD122 receptor (hoRb), hCD122 with H133D and Y134F (human, UniProt P14784 27-550)
# T1 sequence: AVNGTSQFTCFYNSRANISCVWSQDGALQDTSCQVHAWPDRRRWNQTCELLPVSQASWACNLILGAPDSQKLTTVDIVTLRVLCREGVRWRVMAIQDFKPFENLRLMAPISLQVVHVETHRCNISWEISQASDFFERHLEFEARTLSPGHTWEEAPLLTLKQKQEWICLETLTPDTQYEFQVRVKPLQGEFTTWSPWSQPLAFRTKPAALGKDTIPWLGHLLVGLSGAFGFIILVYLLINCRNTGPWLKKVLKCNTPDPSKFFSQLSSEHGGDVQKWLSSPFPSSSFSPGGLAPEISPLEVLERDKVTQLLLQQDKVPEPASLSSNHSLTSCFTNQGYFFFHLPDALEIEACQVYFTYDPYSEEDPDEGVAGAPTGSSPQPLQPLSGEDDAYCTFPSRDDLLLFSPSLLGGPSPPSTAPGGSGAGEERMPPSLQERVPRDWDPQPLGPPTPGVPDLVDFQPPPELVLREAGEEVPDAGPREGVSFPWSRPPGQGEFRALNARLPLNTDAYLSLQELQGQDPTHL
# Assay Remarks: cell-based or functional assay
Measurement Label: 3F8 Ortho Proliferation Signal 1:2

>  <Binder>
Q126I, SQVLKA (ligand) APTSSSTKKTQLQLSQLLVLLKAILNGINNYKNPKLTRMLTFKFYMPKKATELKHLQCLEEELKPLEEVLNLAQSKNFHLRPRDLISNINVIVLELKGSETTFMCEYADETATIVEFLNRWITFCISIISTLT

>  <Recorded Value>
27400 cts/min

$$$$
>  <Binder>
D109C, SQVLKA (ligand) APTSSSTKKTQLQLSQLLVLLKAILNGINNYKNPKLTRMLTFKFYMPKKATELKHLQCLEEELKPLEEVLNLAQSKNFHLRPRDLISNINVIVLELKGSETTFMCEYACETATIVEFLNRWITFCQSIISTLT

>  <Recorded Value>
29100 cts/min

$$$$
